- TARGET DESC: CETP in human plasma (Homo sapiens, UniProt P11597)
- Construct: tissue Sigma P9523; host or cells: human plasma (purchased, unfractionated)
- Sequence (P11597 18-493): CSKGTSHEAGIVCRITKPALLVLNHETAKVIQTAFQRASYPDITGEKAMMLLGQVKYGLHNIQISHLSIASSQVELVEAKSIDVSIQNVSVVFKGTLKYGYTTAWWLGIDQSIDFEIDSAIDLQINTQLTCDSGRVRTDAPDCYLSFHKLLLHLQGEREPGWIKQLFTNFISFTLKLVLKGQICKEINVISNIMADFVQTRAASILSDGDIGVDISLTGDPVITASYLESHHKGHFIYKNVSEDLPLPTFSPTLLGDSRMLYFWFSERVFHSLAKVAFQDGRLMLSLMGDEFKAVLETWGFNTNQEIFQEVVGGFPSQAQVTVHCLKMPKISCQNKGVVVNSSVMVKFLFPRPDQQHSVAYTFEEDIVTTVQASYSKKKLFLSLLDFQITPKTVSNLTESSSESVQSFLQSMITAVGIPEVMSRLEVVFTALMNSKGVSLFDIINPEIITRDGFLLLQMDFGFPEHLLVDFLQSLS
- EXPERIMENT NOTES: CETP fluorescence test with human plasma
- Assay type: biochemical
- ASSAY CONTEXT: 86% v/v human plasma, 37° C., 24 h
Give IC50 for every item shown.
One number for each entry, in nM.

- STRUCTURE NOTATION: "O[C@H]1CC2(CC2)Cc2nc(C3CCCC3)c([C@@H](F)c3ccc(C(F)(F)F)cc3)c(C3CCCCC3)c21"
  IC50 [nM]: 80

Please turn your attention to the following entry.
[in] Which IC50 is listed for O[C@H]1CC2(CC2)Cc2nc(C3CCCC3)c([C@@H](F)c3ccc(C(F)(F)F)cc3)c(C3CCCC3)c21 ?
[out] 40
